# System: monocistronic NK5.1 HCV replicon in Huh7 cells
# protocol_notes: HCV replicon assay, monocistronic replicon cell line
# Type: cell-based, hepatitis C virus
# condition_parameters: Hepatitis C virus, Huh-7; monocistronic NK5.1 HCV replicon in Huh7 cells; median value; read-out: Mono EC50 Median
// EC50 lookup, one value per entry

- compound: "COc1ccc(O)c(-c2noc(-c3ccco3)n2)c1 [Compound 302]"
  comparison_symbol: "="
  EC50, µM: 16
- compound: "O=[N+]([O-])c1ccc(O)c(-c2nc(-c3cnccc3C(F)(F)F)n[nH]2)c1 [Compound 412]"
  comparison_symbol: ">"
  EC50, µM: 19
- compound: "CC(=O)Nc1ccc(-c2noc(-c3cc(Br)ccc3O)n2)nc1 [Compound 263]"
  comparison_symbol: ">"
  EC50, µM: 19
- compound: "Oc1ccc(Br)cc1-c1nc(-c2ccc(C(F)(F)F)cn2)no1 [Compound 213]"
  comparison_symbol: "="
  EC50, µM: 25
- compound: "Oc1ccccc1-c1nnc(-c2ccccc2)o1 [Compound 318]"
  comparison_symbol: "="
  EC50, µM: 14
- compound: "Oc1ccccc1-c1nc(-c2ccccn2)n[nH]1 [Compound 361]"
  comparison_symbol: ">"
  EC50, µM: 19
- compound: "Oc1ccc2ccccc2c1-c1nnc(-c2ccccc2C(F)(F)F)o1 [Compound 306]"
  comparison_symbol: "="
  EC50, µM: 26
- compound: "COc1cccc(-c2nc(-c3ccc(NC(C)=O)cn3)no2)c1O [Compound 260]"
  comparison_symbol: "="
  EC50, µM: 44.3
- compound: "Cc1cccc(-c2n[nH]c(-c3ccccc3Cl)n2)n1 [Compound 466]"
  comparison_symbol: ">"
  EC50, µM: 32
- compound: "CCOc1cccc(-c2nc(-c3cnccc3C(F)(F)F)n[nH]2)c1O [Compound 416]"
  comparison_symbol: ">"
  EC50, µM: 19
- compound: "O=[N+]([O-])c1cccc(-c2nc(-c3ccc(C(F)(F)F)cn3)no2)c1 [Compound 215]"
  comparison_symbol: "="
  EC50, µM: 31
- compound: "CC(C)c1ccc(-c2nc(-c3ccccn3)n[nH]2)cc1 [Compound 389]"
  comparison_symbol: ">"
  EC50, µM: 19
- compound: "Cc1cccnc1-c1noc(-c2cc(Cl)cc(Cl)c2O)n1 [Compound 278]"
  comparison_symbol: "="
  EC50, µM: 3.8
- compound: "COc1ccc(-c2nc(-c3ncccc3C)no2)c(O)c1OC [Compound 282]"
  comparison_symbol: "="
  EC50, µM: 1.3
- compound: "Oc1ccc(Cl)cc1-c1nc(-c2ccc(C(F)(F)F)cn2)no1 [Compound 218]"
  comparison_symbol: "="
  EC50, µM: 18
- compound: "Cc1cccnc1-c1n[nH]c(-c2cc3c4c(c2O)C(C)(C)CCN4CCC3(C)C)n1 [Compound 456]"
  comparison_symbol: "="
  EC50, µM: 0.73
- compound: "COc1cccc(-c2nc(-c3ncccc3C)n[nH]2)c1 [Compound 458]"
  comparison_symbol: ">"
  EC50, µM: 32
- compound: "Oc1ccc(Cl)cc1-c1nc(-c2cnccc2C(F)(F)F)n[nH]1 [Compound 415]"
  comparison_symbol: "="
  EC50, µM: 14
- compound: "COc1cc(O)c(-c2nc(-c3ncccc3-c3ccccc3)no2)c(OC)c1 [Compound 233]"
  comparison_symbol: "="
  EC50, µM: 2.1

The reported numbers originate from patent US20050075375A1.
